# credit: patent US6197769A

biological target: 5-HT4 Receptor (Rattus norvegicus, UniProt Q62758); construct: serotonin-induced relaxation of rat oesophageal tunica; from tissue; host or cells: rat oesophageal tunica; assay: Antagonistic action on 5-HT4 receptor: inhibition of serotonin-induced relaxation of rat oesophageal tunica pre-contracted with carbachol; details: antagonism, read-out: pA2 (converted)
Sequence (Q62758 whole entry): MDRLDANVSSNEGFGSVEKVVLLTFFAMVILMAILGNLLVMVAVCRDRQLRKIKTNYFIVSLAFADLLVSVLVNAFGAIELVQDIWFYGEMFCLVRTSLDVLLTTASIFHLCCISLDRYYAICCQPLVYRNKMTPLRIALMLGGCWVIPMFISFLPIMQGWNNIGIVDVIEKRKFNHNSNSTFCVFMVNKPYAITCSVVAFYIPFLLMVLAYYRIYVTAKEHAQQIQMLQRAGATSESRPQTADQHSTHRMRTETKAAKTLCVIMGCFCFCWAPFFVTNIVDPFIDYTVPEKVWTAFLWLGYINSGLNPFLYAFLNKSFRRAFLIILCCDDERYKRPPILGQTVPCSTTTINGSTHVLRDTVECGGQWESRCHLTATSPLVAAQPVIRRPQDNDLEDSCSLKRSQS
Structures can show the parent of a compound that is named as a salt.
Reported Kb values for the following molecules.
Supply the numeric figure in nM, leaving out any unit text.

Examples with their reported Kb follow.
1. CC(C)n1nc(C(=O)NCC2CCN(CCc3ccccc3)CC2)c2ccccc21 [AFR 306, hydrochloride]	0.437
2. CC(C)n1nc(C(=O)NCC2CCN(CCC3CCCCC3)CC2)c2ccccc21 [AFR 604, hydrochloride]	6.46
3. CC(C)n1nc(C(=O)NCC2CCN(CCCCc3ccccc3)CC2)c2ccccc21 [AFR 603, oxalate]	0.759

// switching to the query molecule
Look up Kb: CC(C)n1nc(C(=O)NCC2CCN(CCc3ccccn3)CC2)c2ccccc21 [AFR 605, hydrochloride] 0.0158
